# Target or test system: Voltage-gated inwardly rectifying potassium channel KCNH2 (Homo sapiens)
# Sequence (Q12809 whole entry): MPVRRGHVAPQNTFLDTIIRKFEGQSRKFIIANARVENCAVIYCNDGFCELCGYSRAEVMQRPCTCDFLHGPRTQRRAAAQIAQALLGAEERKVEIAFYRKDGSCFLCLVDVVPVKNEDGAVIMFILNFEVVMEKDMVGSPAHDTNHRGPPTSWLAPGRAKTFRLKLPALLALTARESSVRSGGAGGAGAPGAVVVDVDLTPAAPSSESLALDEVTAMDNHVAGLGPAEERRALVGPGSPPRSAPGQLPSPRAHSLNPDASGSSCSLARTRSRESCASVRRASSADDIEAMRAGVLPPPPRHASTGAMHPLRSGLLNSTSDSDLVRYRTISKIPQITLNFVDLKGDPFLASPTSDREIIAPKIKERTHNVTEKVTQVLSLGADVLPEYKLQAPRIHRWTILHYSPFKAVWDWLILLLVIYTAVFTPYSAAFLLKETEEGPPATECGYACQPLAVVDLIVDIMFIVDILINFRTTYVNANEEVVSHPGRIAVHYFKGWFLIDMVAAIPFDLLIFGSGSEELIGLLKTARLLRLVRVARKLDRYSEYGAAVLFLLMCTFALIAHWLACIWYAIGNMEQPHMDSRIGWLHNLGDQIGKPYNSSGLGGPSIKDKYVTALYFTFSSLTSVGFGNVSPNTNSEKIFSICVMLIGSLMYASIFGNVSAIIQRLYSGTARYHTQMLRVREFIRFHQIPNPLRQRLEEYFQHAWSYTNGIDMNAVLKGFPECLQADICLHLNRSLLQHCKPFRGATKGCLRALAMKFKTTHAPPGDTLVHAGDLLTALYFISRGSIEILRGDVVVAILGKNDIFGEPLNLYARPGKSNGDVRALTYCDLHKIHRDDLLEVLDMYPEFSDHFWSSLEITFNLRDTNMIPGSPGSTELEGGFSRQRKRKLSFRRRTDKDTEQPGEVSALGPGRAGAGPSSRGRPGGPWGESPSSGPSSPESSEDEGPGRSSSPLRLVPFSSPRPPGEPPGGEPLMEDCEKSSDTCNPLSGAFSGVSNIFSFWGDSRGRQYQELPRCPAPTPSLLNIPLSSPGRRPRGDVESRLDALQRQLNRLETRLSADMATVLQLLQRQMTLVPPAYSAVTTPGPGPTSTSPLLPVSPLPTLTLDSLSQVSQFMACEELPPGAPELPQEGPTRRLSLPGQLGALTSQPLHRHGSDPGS
Property label: pIC50
One number for each entry, as −log10 of the molar value.

stdin: Consider the compound C[C@H](F)Cn1ccc2nc(Nc3cnn(C4CC5(C4)CN(C)C5)c3)nc(NC3(C)CC3)c2c1=O and give its measured pIC50.
stdout: 5.38

====

Record form. Attribute: CLint. Fill in for each entry.
# Assay method text: Metabolic stability in human liver microsomes assessed as intrinsic clearance
# Assay type: ADME
Give bare numbers, in µL/min/mg.

[[record]]
compound = "CN1CC(n2cc(Nc3nc(NC4(C)CC4)c4c(=O)n(C)ccc4n3)cn2)CCC1=O (stereo not drawn)"
reading = 89

[[record]]
compound = "CN1CCC(n2cc(Nc3nc(NC4(C)CC4)c4c(=O)n(CC(F)F)ccc4n3)cn2)CC1"
reading = 50

[[record]]
compound = "C[C@H]1C[C@@H](n2cc(Nc3nc(NC4(C)CC4)c4c(=O)n(C)ccc4n3)cn2)CCN1C (relative stereo)"
reading = 31


Would you mind listing CLint for each of the following compounds?
1. CN1CCC(n2cc(Nc3nc(NC4(C)CC4)c4c(=O)n(-c5cncnc5)ccc4n3)cn2)CC1
2. C[C@@H](CF)n1ccc2nc(Nc3cnn(C4CCN(C)CC4)c3)nc(NC3(C)CC3)c2c1=O
3. Cn1cc(Nc2nc(NC3(C)CC3)c3c(=O)n(C)ccc3n2)cn1
4. CN1CC[C@H](n2cc(Nc3nc(NC4(C)CC4)c4c(=O)n(C)ccc4n3)cn2)[C@H](F)C1 (racemic)

stdout:
[38, 51, 13, 61]

====

# Assay method text: Octanol/water partition coefficient, logP of compound at pH 7.4 by shake-flask method
# Assay type: physicochemical
Property label: logD
Numbers only.

[[record]]
compound = "CN1CC[C@H](n2cc(Nc3nc(NC4(C)CC4)c4c(=O)n(C)ccc4n3)cn2)[C@H](F)C1 (racemic)"
property_label = "logD"
reading = 2.7

[[record]]
compound = "CN1C[C@@H]2C[C@H]1C[C@@H]2n1cc(Nc2nc(NC3(C)CC3)c3c(=O)n(C)ccc3n2)cn1"
property_label = "logD"
reading = 1.4

[[record]]
compound = "C[C@H](CF)n1ccc2nc(Nc3cnn(C4CCN(C)CC4)c3)nc(NC3(C)CC3)c2c1=O"
property_label = "logD"
reading = 2.8

[[record]]
compound = "CN1CCC(n2cc(Nc3nc(NC4(C)CC4)c4c(=O)n(-c5cnn[nH]5)ccc4n3)cn2)CC1"
property_label = "logD"
reading = 2.5

[[record]]
compound = "COC(=O)N1CCN([C@H]2CC[C@H](Nc3nc(Nc4cnn(C)c4)nc4ccn(C)c(=O)c34)CC2)CC1"
property_label = "logD"
reading = 2.4


Would you mind listing logD for each of the following compounds?
1. CN1CCC(n2cc(Nc3nc(NC4(C)CC4)c4c(=O)n(-c5nnc[nH]5)ccc4n3)cn2)CC1
2. CN1CC2(CC(n3cc(Nc4nc(NC5(C)CC5)c5c(=O)n(C)ccc5n4)cn3)C2)C1
3. CN1CC2(CC(n3cc(Nc4nc(NC5(C)CC5)c5c(=O)n(-c6cn(C)nn6)ccc5n4)cn3)C2)C1
4. CN1CC[C@H](n2cc(Nc3nc(NC4(C)CC4)c4c(=O)n(C)ccc4n3)cn2)[C@@H](F)C1 (racemic)

stdout:
1. 1.8
2. 1.4
3. 1.7
4. 3.2
